- MEASUREMENT PROTOCOL: qHTS Assay for inhibitors of the human cytomegalovirus (HCMV); further: on the % scale 0 is the no-effect control and ±100 the full control effect
- ASSAY SETUP: HFF cells, HCMV-luciferase reporter, 72 h; at 57.5 µM; active compounds read low
The campaign covered roughly 410,000 compounds. About 18,000 (4.4%) were called active. Roughly 7% stayed inconclusive and do not appear here. The sample holds actives, similar compounds and a random draw of the others, so the mix is not that of the screen.
RECORDED METRIC: activity change, negative = inhibition (%)
Answer with a number only, understood to be in %.

# lookup: activity change, negative = inhibition of `COc1ccccc1CNC(=O)NCc1noc2ccc(C)cc12`
-4.73

GET /values?readout=activity change, negative = inhibition&item= `CCOc1ccc(S(=O)(=O)c2cn(Cc3ccccc3)c3ccc(OCC)cc3c2=O)cc1`
-13.1

Could you share which activity change, negative = inhibition value was measured for `Cc1ccc(CCNC(=O)Cn2c(-c3cccs3)cc3cc(F)ccc32)cc1` ?
-16.7

Field request: activity change, negative = inhibition | item: `COC(=O)Cc1nnn2c1[C@H](C)[C@H](c1ccccc1[N+](=O)[O-])OCC2`
-4.47

What value of activity change, negative = inhibition has been recorded for this entry: `Cc1ccc(-n2cc3ccc([N+](=O)[O-])cc3n2)cc1`
46.8
